# Test system: DU-145 prostate
# TEST PROTOCOL: NCI-60 one-dose screen, 48 h (100 = growth as untreated, 0 = no growth, -100 = all killed)
# CONDITION LABEL: 10 µM unless noted
Compounds without any hit were thinned out: in the full panel of roughly 83,000, 20% have a hit.
Can you tell me growth for the items I'm about to list?
Give bare numbers, in %.

O=c1cc(/C=N\Nc2nc(-c3ccc(Cl)cc3Cl)cs2)c2cc(Cl)ccc2o1 : 102
O=C(O)c1cc(N=Nc2ccc(-c3ccc(N=Nc4c(S(=O)(=O)O)cc5ccc(Nc6ccccc6)cc5c4O)cc3)cc2)ccc1O : 109
COc1cc(-c2cn(-c3ccc(Cl)c(Cl)c3)c(=O)[nH]2)cc(OC)c1OC : 100

Batch: growth for all items listed.
1. COc1ccc2[nH]c(-c3ccccc3)c(C=C(C#N)C#N)c2c1
2. COC(=O)c1cncc(C(=O)Nc2ccc(-n3cnc4ccccc43)cc2)c1

Solution:
35.2
105

Batch: growth for all items listed.
1. COc1ccc(/C=C/C(=O)c2ccc(NC(=O)CSc3nnc(-c4ccc(OC)c(OC)c4)n3-c3ccccc3)cc2)cc1
2. COc1cc(NCC(=O)Nc2cc(Nc3ccc(C)cc3)ncn2)c(Cl)c(OC)c1Cl

Solution:
1: 40.8; 2: 102

Batch: growth for all items listed.
1. Cc1ccc(CS/C(=C\c2ccc([N+](=O)[O-])cc2)C(=O)c2ccc(F)cc2)cc1
2. C#C[C@@]1(O)[C@@H](CO)O[C@@H](n2cc(Cl)c3c(N)ncnc32)[C@@H]1O
3. COc1ccccc1C(=O)/C=C/c1cc2cccc(OC)c2[nH]c1=O
4. O=c1[nH]nc(-c2ccc(Br)cc2)c2sc(NC(=S)Nc3ccc(Cl)cc3)nc12
5. c1ccc2nc(N3CCOCC3)c(N3CCCCC3)nc2c1

Solution:
1. 91.2
2. 4.44
3. 16.5
4. 110
5. 111

====

Can you tell me growth for the items I'm about to list?
# Tested on: ACHN renal
# TEST PROTOCOL: NCI-60 one-dose screen, 48 h (100 = growth as untreated, 0 = no growth, -100 = all killed)
# CONDITION LABEL: 10 µM unless noted
About 83,000 compounds went through this panel and 20% of them were active in at least one assay; those are over-represented in the sample as a whole.
One number for each entry, in %.

CCCCc1n(Cc2ccc3ccccc3n2)cc[n+]1Cc1ccc2ccccc2c1 : 61.2

Batch: growth for all items listed.
1. c1ccc(-c2n(Cc3ccc4ccccc4n3)cc[n+]2Cc2ccc3ccccc3n2)cc1
2. COc1cc2c(cc1OCCCOc1cc3c(cc1OC)C(=O)N1CC(F)(F)C[C@H]1C=N3)N=C[C@@H]1CC(F)(F)CN1C2=O
3. NC(=O)c1ccc2nc3c(n2c1)C(=O)C(=O)c1ccccc1-3
4. COc1cc(/C=C/C(=O)c2cccs2)ccc1OCc1ccc(Cl)nc1
5. COCCOCCOCc1n(Cc2ccc3ccccc3c2)c2ccccc2[n+]1Cc1ccc2ccccc2c1
6. C#C[C@@]1(O)[C@@H](CO)O[C@@H](n2cc(Cl)c3c(N)ncnc32)[C@@H]1O

Solution:
96.8
24.7
-100
102
93.9
-12.5

====

Can you tell me growth for the items I'm about to list?
# System: HOP-62 NSCLC
# TEST PROTOCOL: NCI-60 one-dose screen, 48 h (100 = growth as untreated, 0 = no growth, -100 = all killed)
# CONDITION LABEL: 10 µM unless noted
Compounds without any hit were thinned out: in the full panel of roughly 83,000, 20% have a hit.
Give bare numbers, in %.

Example results:
Cc1nc2sc(C(=O)Nc3ccccc3)c(N)c2cc1C(C)O (stereo not drawn) : 30.1
COc1cc(C(C)c2ccc3c(ccn3C)c2)cc(OC)c1OC (stereo not drawn) : 29.4

Could you now look at the following molecule, please?
Problem: Fill in reported growth for this entry: C#CCN(CCCOc1ccc(Cl)cc1Cl)CCCSC(=O)CCCCCN1/C(=C\C=C2/CCCC(/C=C/C3=[N+](CCCCCC(=O)[O-])c4ccccc4C3(C)C)=C2Cl)C(C)(C)c2ccccc21
Solution: 30.7
